For each of the binders below, state its interaction score.
Target: T1, 4H797-bH
T1 chain: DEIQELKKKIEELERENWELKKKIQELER
Assay: two-hybrid library CCNG1;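 also: natural log of median RNA to DNA barcode read ratio; higher means stronger binding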
# output: bare number, no unit

Please report the recorded interaction score for DKNQELEKEIEELKRKNWELEKEIQELER [4H3185-bH] . -1.22

Please report the recorded interaction score for DKNQELEKKIEELKRKIWELEKENQELER [4H3427-bH] . -0.726

Please report the recorded interaction score for DEIQELEKENEELERKIWELKKEIQELKR [4H170-bH] . 0.264

Please report the recorded interaction score for DKIQELKKEIEELKRKNWELEKEIQELER [4H2673-bH] . -0.55

Please report the recorded interaction score for DKNQELKKKIEELEREIWELEKENQELER [4H3843-bH] . -0.437
